Answer each item with its documented protein stability index.
B1: FEM1A (parent)
chain: PCCSSSPEEPLNGESYESCCPTSR

variants of: B1; assay: protein stability index of a GFP-peptide fusion (GPS, HEK-293T) (PSI 1-6); higher = more stable; conditions: c terminus: a fixed tail appended;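 note: lentivirally expressed fusions sorted by FACS into six bins by GFP to DsRed ratio, PSI derived from sequencing read proportions per bin multiplied by bin number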
One number for each entry.

Solved cases below.
PCCSSSPEEPLNGESEESCCPTSR [Y16E]	4.69
PCCSSSPEEPLNGESYESCCPTRR [S23R]	2.95
PCCSSSPEEPLNGESYESCCVTSR [P21V]	3.1
PCCSSSPEEPLNGESYESCCFTSR [P21F]	3.04
PCCSSSPEEPLNGNSYESCCPTSR [E14N]	3.66

Each variant below has a reported value. Please supply its protein stability index.
1. PCCSSSPEEPPNGESYESCCPTSR [L11P]
2. NCCSSSPEEPLNGESYESCCPTSR [P1N]
3. PCCSSSPEEPLNGESYESLCPTSR [C19L]
4. PCCSTSPEEPLNGESYESCCPTSR [S5T]
5. PCCSSSPEEPLNGESYESCCPKSR [T22K]

### Response
1. 4.08
2. 3.96
3. 3.28
4. 3.9
5. 3.79

Each variant below has a reported value. Please supply its protein stability index.
1. PCCSSSPEEPLNGESYESWCPTSR [C19W]
2. PCCSSSPDEPLNGESYESCCPTSR [E8D]
3. PCCSSSPEEPLCGESYESCCPTSR [N12C]

### Response
1: 1.98; 2: 3.51; 3: 3.43
